Test system: RARb:RXRa (NR concentration 270 nM, RXRa partner concentration 90 nM)
assay-protocol: PBM binding z-score (relative to random genomic background probes); higher = stronger binding; sequences stand for … in GC…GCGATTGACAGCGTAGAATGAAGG
The label depends only on PBM binding z-score: Satisfied if it is at least 2, Not satisfied if it is smaller.

| macromolecule-sequence | category |
| --- | --- |
| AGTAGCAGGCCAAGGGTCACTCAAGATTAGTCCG | Satisfied |
| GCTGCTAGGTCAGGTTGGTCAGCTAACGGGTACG | Satisfied |
| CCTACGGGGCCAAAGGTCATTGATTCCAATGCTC | Satisfied |
| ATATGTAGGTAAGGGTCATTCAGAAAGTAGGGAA | Satisfied |
| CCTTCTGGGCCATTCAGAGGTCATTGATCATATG | Satisfied |
| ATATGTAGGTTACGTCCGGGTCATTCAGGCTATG | Satisfied |
| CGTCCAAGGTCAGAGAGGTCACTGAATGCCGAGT | Satisfied |
| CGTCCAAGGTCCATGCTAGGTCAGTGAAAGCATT | Not satisfied |
| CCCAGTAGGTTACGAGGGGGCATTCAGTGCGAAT | Satisfied |
| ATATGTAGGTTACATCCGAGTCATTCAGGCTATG | Not satisfied |
| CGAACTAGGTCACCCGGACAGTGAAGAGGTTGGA | Satisfied |
